Value source: patent US6432962B1

- method: Log P of the tested compounds
- Format: physicochemical
measured-property: logP

INSERT INTO assay_data (compound, observed) VALUES
  ('Cc1ccccc1C(=O)c1ccc(Nc2ccccc2N)cc1Cl [Ref. comp., reference compound]', 4.9),
  ('Cc1ccccc1C(=O)c1ccc(Nc2cncc3ccccc23)cc1Cl', 4.2);

###

- assay-target: p38α MAP kinase (Homo sapiens, UniProt Q16539)
- Sequence (Q16539 whole entry): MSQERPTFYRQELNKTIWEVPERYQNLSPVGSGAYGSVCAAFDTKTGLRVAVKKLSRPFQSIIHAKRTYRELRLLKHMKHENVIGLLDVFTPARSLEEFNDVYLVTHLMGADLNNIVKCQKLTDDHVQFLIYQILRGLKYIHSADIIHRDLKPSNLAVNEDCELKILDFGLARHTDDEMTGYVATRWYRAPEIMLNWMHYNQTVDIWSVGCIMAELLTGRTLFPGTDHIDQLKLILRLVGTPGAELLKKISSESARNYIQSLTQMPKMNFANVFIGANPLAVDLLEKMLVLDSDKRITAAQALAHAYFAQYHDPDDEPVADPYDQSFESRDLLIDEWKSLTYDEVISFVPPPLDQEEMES
measured-property: IC50 (nM)
Enter your answer as a number in nM; do not include the unit.

## Input Write down IC50 measured for item Cc1ccccc1C(=O)c1ccc(Nc2cncc3ccccc23)cc1Cl [Compound 114]
## Output 12.8
